Cited source: patent US11427548B2

- system name: Androgen Receptor (Homo sapiens)
- Construct: endogenous in cells; host or cells: VCaP cells
- Sequence (P10275 whole entry): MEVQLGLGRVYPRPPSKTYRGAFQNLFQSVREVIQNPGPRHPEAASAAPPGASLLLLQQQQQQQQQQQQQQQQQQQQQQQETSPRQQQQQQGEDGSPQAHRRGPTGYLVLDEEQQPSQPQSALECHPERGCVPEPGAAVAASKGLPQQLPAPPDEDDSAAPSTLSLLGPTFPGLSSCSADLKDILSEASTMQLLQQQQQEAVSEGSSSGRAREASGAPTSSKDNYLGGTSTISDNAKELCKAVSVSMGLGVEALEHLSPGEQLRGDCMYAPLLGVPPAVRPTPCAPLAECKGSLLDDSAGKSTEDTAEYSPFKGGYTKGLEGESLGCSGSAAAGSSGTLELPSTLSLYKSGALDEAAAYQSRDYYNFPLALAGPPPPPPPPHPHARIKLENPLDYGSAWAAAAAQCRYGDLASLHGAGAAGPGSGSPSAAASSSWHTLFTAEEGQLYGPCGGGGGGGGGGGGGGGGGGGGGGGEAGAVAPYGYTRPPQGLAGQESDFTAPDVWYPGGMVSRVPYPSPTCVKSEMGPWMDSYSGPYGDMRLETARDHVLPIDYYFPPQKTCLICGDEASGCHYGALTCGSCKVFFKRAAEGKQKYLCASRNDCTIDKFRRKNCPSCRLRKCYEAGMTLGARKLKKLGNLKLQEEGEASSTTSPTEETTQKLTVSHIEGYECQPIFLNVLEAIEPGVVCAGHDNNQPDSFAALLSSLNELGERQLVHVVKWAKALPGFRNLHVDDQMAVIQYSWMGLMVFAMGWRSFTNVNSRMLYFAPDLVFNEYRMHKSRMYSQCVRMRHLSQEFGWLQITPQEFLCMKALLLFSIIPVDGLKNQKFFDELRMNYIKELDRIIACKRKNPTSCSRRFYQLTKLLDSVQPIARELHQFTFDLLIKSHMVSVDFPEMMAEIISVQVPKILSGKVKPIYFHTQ
- test description: Androgen Receptor ELISA assay (PathScan AR ELISA) in VCaP cells: AR degradation, Dmax and DC50
- Assay type: cell-based
- condition label: VCaP, read-out: VCaP Dmax (%)
assay readout: Dmax

compound=Cc1ncsc1-c1ccc([C@H](C)NC(=O)[C@@H]2C[C@@H](O)CN2C(=O)[C@@H](NC(=O)COCCCCOc2ccc(-c3ccc(N4C(=S)N(c5ccc(C#N)c(C(F)(F)F)c5)C(=O)C4(C)C)cc3)cc2)C(C)(C)C)cc1 assay_readout=Dmax value_observed="> 71%"
compound=Cc1ncsc1-c1ccc([C@H](C)NC(=O)[C@@H]2C[C@@H](O)CN2C(=O)[C@@H](NC(=O)CN2CCO[C@H](CN3CCO[C@@H](COc4ccc(N5C(=S)N(c6ccc(C#N)c(C(F)(F)F)c6)C(=O)C5(C)C)cc4)C3)C2)C(C)(C)C)cc1 assay_readout=Dmax value_observed="< 25%"
compound=Cc1ncsc1-c1ccc(CNC(=O)[C@@H]2C[C@@H](O)CN2C(=O)[C@@H](NC(=O)COCC#CCOCCOc2ccc(N3C(=S)N(c4ccc(C#N)c(C(F)(F)F)c4)C(=O)C3(C)C)cc2)C(C)(C)C)cc1 assay_readout=Dmax value_observed="26 to 50%"
compound=Cc1ncsc1-c1ccc(CNC(=O)[C@@H]2C[C@@H](O)CN2C(=O)[C@@H](NC(=O)COCCCCNc2ccc(-c3ccc(N4C(=S)N(c5ccc(C#N)c(C(F)(F)F)c5)C(=O)C4(C)C)cc3)cn2)C(C)(C)C)cc1 assay_readout=Dmax value_observed="51 to 70%"
compound=Cc1ncsc1-c1ccc(CNC(=O)[C@@H]2C[C@@H](O)CN2C(=O)[C@@H](NC(=O)COCCCOCCCCOc2ccc(CN3C(=S)N(c4ccc(C#N)c(C(F)(F)F)c4)C(=O)C3(C)C)cc2)C(C)(C)C)cc1 assay_readout=Dmax value_observed="51 to 70%"
compound=CC(C)(C)[C@H](NC(=O)COCCCCOc1ccc(-c2ccc(N3C(=S)N(c4ccc(C#N)c(C(F)(F)F)c4)C(=O)C3(C)C)c(F)c2)cc1)C(=O)N1C[C@H](O)C[C@H]1C(=O)NCc1ccc(-c2cncs2)cc1 assay_readout=Dmax value_observed="> 71%"
compound=Cc1n[nH]cc1-c1ccc(CNC(=O)[C@@H]2C[C@@H](O)CN2C(=O)[C@@H](NC(=O)COCCCOCCCCOc2ccc(N3C(=S)N(c4ccc(C#N)c(C(F)(F)F)c4)C(=O)C3(C)C)cc2)C(C)(C)C)cc1 assay_readout=Dmax value_observed="51 to 70%"
compound=CC(C)[C@H](NC(=O)COCCCOCCCCOc1ccc(N2C(=S)N(c3ccc(C#N)c(Cl)c3)C(=O)C2(C)C)cc1)C(=O)N1C[C@H](O)C[C@H]1C(=O)NCc1ccc(-c2cncs2)cc1 assay_readout=Dmax value_observed="26 to 50%"
compound=Cc1ncsc1-c1ccc([C@H](C)NC(=O)[C@@H]2C[C@@H](O)CN2C(=O)[C@@H](NC(=O)COCCCCNc2ccc(-c3ccc(N4C(=S)N(c5ccc(C#N)c(C(F)(F)F)c5)C(=O)C4(C)C)cc3)cc2)C(C)(C)C)cc1 assay_readout=Dmax value_observed="> 71%"
compound=Cc1nccn1-c1ccc([C@H](C)NC(=O)[C@@H]2C[C@@H](O)CN2C(=O)[C@H](C(C)C)n2cc(OCCCOCCCCCOc3ccc(N4C(=S)N(c5ccc(C#N)c(C(F)(F)F)c5)C(=O)C4(C)C)cc3)cn2)cc1 assay_readout=Dmax value_observed="< 25%"
compound=Cc1ncsc1-c1ccc(CNC(=O)[C@@H]2C[C@@H](O)CN2C(=O)[C@@H](NC(=O)COCCCCOc2ccc(-c3ccc(N4C(=S)N(c5ccc(C#N)c(C(F)(F)F)c5)C(=O)C4(C)C)c(F)c3)cc2)C(C)(C)C)cc1 assay_readout=Dmax value_observed="> 71%"
compound=CC(C)(C)[C@H](NC(=O)COCCCOCCCCOc1ccc(N2C(=S)N(c3ccc(C#N)c(Cl)c3)C(=O)C2(C)C)cc1)C(=O)N1C[C@H](O)C[C@H]1C(=O)NCc1ccc(-c2cnco2)cc1 assay_readout=Dmax value_observed="> 71%"
compound="Cc1ncsc1-c1ccc(CNC(=O)[C@@H]2C[C@@H](O)CN2C(=O)[C@@H](NC(=O)C(C)(C)C(O)CCCOCCCCCOc2ccc(N3C(=S)N(c4ccc(C#N)c(C(F)(F)F)c4)C(=O)C3(C)C)cc2)C(C)(C)C)cc1 (some centres unmarked)" assay_readout=Dmax value_observed="< 25%"
compound=Cc1ncsc1-c1ccc(CNC(=O)[C@@H]2C[C@@H](O)CN2C(=O)[C@@H](NC(=O)Cc2cccc(OCCCOCCOc3ccc(N4C(=S)N(c5ccc(C#N)c(C(F)(F)F)c5)C(=O)C4(C)C)cc3)c2)C(C)(C)C)cc1 assay_readout=Dmax value_observed="26 to 50%"
compound=Cc1ncoc1-c1ccc(CNC(=O)[C@@H]2C[C@@H](O)CN2C(=O)[C@@H](NC(=O)COCCCCOc2ccc(-c3ccc(N4C(=S)N(c5ccc(C#N)c(C(F)(F)F)c5)C(=O)C4(C)C)cc3F)cc2)C(C)(C)C)cc1 assay_readout=Dmax value_observed="> 71%"
compound=Cc1ncsc1-c1ccc(CNC(=O)[C@@H]2C[C@@H](O)CN2C(=O)[C@@H](NC(=O)COCCC[C@H](C)Oc2ccc(-c3ccc(N4C(=S)N(c5ccc(C#N)c(C(F)(F)F)c5)C(=O)C4(C)C)cc3)cc2)C(C)(C)C)cc1 assay_readout=Dmax value_observed="> 71%"
compound=Cc1ncsc1-c1ccc(CNC(=O)[C@@H]2C[C@@H](O)CN2C(=O)[C@@H](NC(=O)COCC#CC#CCOc2ccc(N3C(=S)N(c4ccc(C#N)c(C(F)(F)F)c4)C(=O)C3(C)C)cc2)C(C)(C)C)cc1 assay_readout=Dmax value_observed="> 71%"
